Where do these numbers come from? They come from paper PMC12287680.

assay: Passive membrane permeability across an artificial membrane; format: in vitro ADME; settings: pH 7.4
Marks after values point to notes of the source that are not given here.
The following molecules are shown together with reported Passive membrane permeability R (%) (mass retention) values.
quantityMeasured: Passive membrane permeability R (%) (mass retention)

>  <molecule>
CN(C)CCc1c[nH]c2cccc(OCOC(=O)C(C)(C)C)c12

>  <reportedResult>
4%

$$$$
>  <molecule>
CCCC(=O)OCOc1cccc2[nH]cc(CCN(C)C)c12

>  <reportedResult>
7 ^e %

$$$$
>  <molecule>
CCN(C)CCc1c[nH]c2cccc(O)c12 [Compound 30, reference compound]

>  <reportedResult>
29%

$$$$
>  <molecule>
CCCC(=O)OCOc1cccc2[nH]cc(CCN(C)CC)c12

>  <reportedResult>
6%

$$$$
>  <molecule>
CCN(C)CCc1c[nH]c2cccc(OCOC(=O)C(C)(C)C)c12

>  <reportedResult>
2%

$$$$
